Listing: Residual activity [%] of selected binders
target: T1, VLP2 (virus-like particles of AAV2) (AAV2, UniProt P03135 1-735; P03135 1-598; P03135 1-533); assay: ELISA on VLP2; binding after 43°C 15 min / untreated
T1 construct: Empty AAV2 capsid; background says about 60 protein molecules, VP1:VP2:VP3 = 1:1:10; Immobilised on the ELISA plate
T1 sequence (P03135 whole entry, chain 1 of 3): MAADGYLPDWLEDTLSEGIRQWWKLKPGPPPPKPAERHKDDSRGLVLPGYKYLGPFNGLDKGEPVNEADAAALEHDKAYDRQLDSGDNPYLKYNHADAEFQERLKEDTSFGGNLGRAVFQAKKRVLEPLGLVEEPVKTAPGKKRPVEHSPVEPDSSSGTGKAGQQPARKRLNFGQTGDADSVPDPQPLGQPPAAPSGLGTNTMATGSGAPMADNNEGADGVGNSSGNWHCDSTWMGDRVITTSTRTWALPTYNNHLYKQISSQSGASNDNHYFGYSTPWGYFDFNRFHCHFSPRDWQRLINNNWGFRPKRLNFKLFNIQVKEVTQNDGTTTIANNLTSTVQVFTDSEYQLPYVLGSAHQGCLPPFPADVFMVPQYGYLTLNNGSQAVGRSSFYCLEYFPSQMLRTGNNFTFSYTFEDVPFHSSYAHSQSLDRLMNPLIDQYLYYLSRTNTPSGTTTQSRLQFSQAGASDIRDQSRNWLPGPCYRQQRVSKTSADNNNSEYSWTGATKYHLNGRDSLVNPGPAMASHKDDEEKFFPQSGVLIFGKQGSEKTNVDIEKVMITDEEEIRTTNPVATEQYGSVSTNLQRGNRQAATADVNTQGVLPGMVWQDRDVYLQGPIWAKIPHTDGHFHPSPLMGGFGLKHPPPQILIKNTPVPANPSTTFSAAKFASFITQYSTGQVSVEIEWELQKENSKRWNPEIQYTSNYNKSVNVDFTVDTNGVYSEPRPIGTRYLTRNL
T1 sequence (P03135 139-735, tags left off, chain 2 of 3): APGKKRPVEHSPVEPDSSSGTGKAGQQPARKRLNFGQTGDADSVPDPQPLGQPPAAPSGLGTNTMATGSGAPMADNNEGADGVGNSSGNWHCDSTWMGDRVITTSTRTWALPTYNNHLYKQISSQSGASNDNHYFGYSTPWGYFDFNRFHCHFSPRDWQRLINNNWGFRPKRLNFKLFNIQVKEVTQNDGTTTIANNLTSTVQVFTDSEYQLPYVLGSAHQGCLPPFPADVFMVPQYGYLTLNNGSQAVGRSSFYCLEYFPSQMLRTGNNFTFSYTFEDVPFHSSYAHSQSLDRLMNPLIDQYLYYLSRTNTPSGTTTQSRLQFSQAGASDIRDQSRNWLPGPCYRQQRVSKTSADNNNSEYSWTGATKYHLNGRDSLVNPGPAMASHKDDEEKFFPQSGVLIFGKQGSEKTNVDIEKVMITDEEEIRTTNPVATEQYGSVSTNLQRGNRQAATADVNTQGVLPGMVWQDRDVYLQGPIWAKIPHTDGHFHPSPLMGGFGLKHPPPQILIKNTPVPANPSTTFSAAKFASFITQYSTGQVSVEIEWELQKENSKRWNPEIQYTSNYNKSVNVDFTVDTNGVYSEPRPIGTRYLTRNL
T1 sequence (P03135 203-735, chain 3 of 3): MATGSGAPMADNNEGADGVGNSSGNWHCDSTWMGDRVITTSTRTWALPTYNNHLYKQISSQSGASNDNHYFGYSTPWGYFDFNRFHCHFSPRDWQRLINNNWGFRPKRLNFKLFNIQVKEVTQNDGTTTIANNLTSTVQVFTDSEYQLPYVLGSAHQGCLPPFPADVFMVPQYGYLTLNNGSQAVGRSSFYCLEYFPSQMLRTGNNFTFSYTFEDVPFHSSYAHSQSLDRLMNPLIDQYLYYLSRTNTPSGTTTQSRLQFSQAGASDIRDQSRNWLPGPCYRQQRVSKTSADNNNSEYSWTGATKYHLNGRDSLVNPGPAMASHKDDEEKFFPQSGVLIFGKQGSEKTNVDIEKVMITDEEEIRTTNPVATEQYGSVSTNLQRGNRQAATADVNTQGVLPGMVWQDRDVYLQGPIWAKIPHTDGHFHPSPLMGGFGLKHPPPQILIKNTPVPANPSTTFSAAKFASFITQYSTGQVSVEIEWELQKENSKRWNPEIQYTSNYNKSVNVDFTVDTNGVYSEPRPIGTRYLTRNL
Field: numeric (%). Do not append units.

Below, each entry is followed by its recorded Residual activity [%] result.
AAV-binding protein No. 22 (Leu477Pro) (receptor) MGSAGESVQITLPKNEVQLNAYVLQEPPKGETYTYDWQLITHPRDYSGEMEGKHSQILKLSKLTPGLYEFKVIVEGQNAHGEGYVNVTVKPEPRKNRPPIAIVSPQFQEISLPTTSTVIDGSQSTDDDKIVQYHWEELKGPLREEKISEDTAILKLSKLVPGNYTFSPTVVDSDGATNSTTANLTVNKAVDHHHHHH :: 79.9
AAV-binding protein No. 5 (Asp345Asn) (receptor) MGSAGESVQITLPKNEVQLNAYVLQEPPKGETYTYNWQLITHPRDYSGEMEGKHSQILKLSKLTPGLYEFKVIVEGQNAHGEGYVNVTVKPEPRKNRPPIAIVSPQFQEISLPTTSTVIDGSQSTDDDKIVQYHWEELKGPLREEKISEDTAILKLSKLVPGNYTFSLTVVDSDGATNSTTANLTVNKAVDHHHHHH :: 71.4

From here, focus on the item given below.
Value lookup for Residual activity [%]; key = AAV-binding protein No. 25 (Asn324Asp, Tyr355His) (receptor) MGSAGESVQITLPKDEVQLNAYVLQEPPKGETYTYDWQLITHPRDHSGEMEGKHSQILKLSKLTPGLYEFKVIVEGQNAHGEGYVNVTVKPEPRKNRPPIAIVSPQFQEISLPTTSTVIDGSQSTDDDKIVQYHWEELKGPLREEKISEDTAILKLSKLVPGNYTFSLTVVDSDGATNSTTANLTVNKAVDHHHHHH 77.6
